Reported bioavailability values follow for various compounds
type: in vivo, C57BL/6 mice; settings: C57BL/6, mouse, whole blood, ip, 500 mg/kg
readout type: bioavailability (%)

[
  {
    "compound": "O=C1CCC[C@@H]2[C@H]3CCCN4CCC[C@@H](CN12)[C@@H]34 [Matrine, matrine]",
    "readout type": "bioavailability",
    "readout unit": "%",
    "numeric result": 28.9
  },
  {
    "compound": "Oc1ccc2c(c1)OCC1c3cc4c(cc3OC21)OCO4 (stereo not drawn) [Maackiain, maackiain]",
    "readout type": "bioavailability",
    "readout unit": "%",
    "numeric result": 4.8
  },
  {
    "compound": "CC1=C2C(=O)O[C@@H](c3ccoc3)[C@]2(C)CCC1 [Fraxinellone, fraxinellone]",
    "readout type": "bioavailability",
    "readout unit": "%",
    "numeric result": 2.8
  }
]
